PROTOCOL: antiproliferative effect on LL 47 fibroblasts – human, LL 47 cells, CellTiter-Glo luminescence, primary screen (AID 719);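 note: compound exposure lasted 72 h before the ATP readout; 100% = median luminescence of untreated cell-only wells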
CONDITION SET: LL 47 human lung fibroblast viability, ATP luminescence; at 10 µM; stronger effect = lower value
Hit rate of the full screen: of about 85,000 compounds, about 940 (1.1%) were called active. This excerpt belongs to a sample that is enriched for actives.
Reported values of viability for individual entries
MEASURED PARAMETER: viability (%)

- CC(C)C(=O)NC(NC(=S)NC1CCS(=O)(=O)C1)C(Cl)(Cl)Cl (centres undefined): 104
- c1ccc2c(c1)C(=NC1CCCCC1)NC2=NC1CCCCC1: 40.6
- O=C(Nc1cccc(NC(=O)c2ccco2)c1)c1cnccn1: 103
- COc1ccccc1NC1=NC(c2ccc(Cl)cc2)N=C(N)N1 (centres undefined): 45.8
- O=C(NCCN1CCOCC1)c1c(F)c(F)c(F)c(F)c1F: 97.6
- Cc1ccc(C)c(NC2=NCC(=O)N2c2ccc3c(c2)OCCO3)c1: 120
- COC(=O)C(NC(C)=O)(Nc1nc2c(s1)CCCC2)C(F)(F)F (centres undefined): 103
- CC(=O)c1sc(NC(=O)c2ccc(C)cc2)nc1C: 105
- COC(=O)c1sc(NC(=O)c2ccc(OC)cc2OC)nc1C: 91.9
- CCCCNS(=O)(=O)c1ccc(S(=O)(=O)n2cnc3ccccc32)cc1: 107
- O=C(/C=C/c1ccc(Cl)cc1Cl)c1cccnc1: 79
- CCOC(=O)c1ccc2c(c1)nc(C)n2CC: 103
- CC(c1ccco1)N(C(=O)Nc1ccccc1)C1CCCCC1 (centres undefined): 97.3
- COc1ccccc1NC1=NC2(CCCC2)N=C(N)N1: 93
- CC(=O)Nc1ccc(S(=O)(=O)N2CCN(C(=O)c3ccccc3F)CC2)cc1: 105
- COc1ccc(NC(=O)CCN2CCCC2)c(OC)c1: 104
- CN(C)S(=O)(=O)c1ccc(N2CCCC2)c(C(=O)NCc2ccccc2)c1: 98.3
- COc1ccc(C)cc1S(=O)(=O)NCCc1ccccc1: 97.6
- CCOC(=O)c1c(NC(=O)CCl)sc(C(=O)N(CC)CC)c1C: 28
- Cc1ccc(Nc2nnc(SCc3ccccc3)s2)cc1: 102
- CC1=CC(C)(C)Nc2ccc(OC(=O)CN3C(=O)C4CCCCC4C3=O)cc21 (centres undefined): 39.7
- CC(=O)NC1=NN(C(C)=O)C(C)(c2ccc(Cl)s2)S1 (centres undefined): 67.1
- CCOc1cccc(-c2nnc3sc(COc4ccc(OC)cc4)nn23)c1: 99.8
- O=C(c1cc2sccc2n1Cc1ccc(F)cc1)N1CCc2ccccc21: 95.6

----------
PROTOCOL: antiproliferative effect on LL 47 fibroblasts – human, LL 47 cells, CellTiter-Glo luminescence, primary screen (AID 719)
CONDITION SET: LL 47 human lung fibroblast viability, ATP luminescence; at 10 µM
Among all 85,000 compounds or so, about 940 (1.1%) were called active.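 Rule for the calls: active = viability at or below 50% in the single dose screen; inactive = viability above 50%.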 This excerpt belongs to a sample that is enriched for actives.
Classes used: active, inactive

• OC(CN=c1sc2ccccc2n1CC(O)COc1ccccc1)COc1ccccc1 (stereo unspecified) = inactive
• Cc1cc2c(c(=O)n1Cc1ccco1)C(c1ccccc1)C(C#N)=C(N)O2 (stereo unspecified) = inactive
• CC1(C)CCc2nc(SCc3ccccc3)c(C#N)cc2C1 = inactive
• N#CC1=C(N)Oc2c(sc3ccccc23)C1c1ccco1 (stereo unspecified) = active
• O=C(Nc1ccccc1-c1nnn(CC(=O)N2CCCc3ccccc32)n1)c1cccc(Cl)c1 = inactive
• C/C(=N\NC(=O)c1ccc(C)cc1)C1C(=O)c2ccccc2C1=O = inactive
• O=C(Cc1cccc2ccccc12)Nc1ccc2oc(-c3ccccc3)nc2c1 = inactive
• N#CC1=C(N)N(c2ccccc2)C2=C(C(=O)CCC2)C1c1ccccc1 (stereo unspecified) = inactive
• Cc1ccc(NC(=O)CCN2CCc3ccccc3C2)cc1 = inactive
• COc1ccc(CN(CC(=O)NC2CCCC2)C(=O)CCC(=O)Nc2cc(C)on2)cc1 = inactive
• CCOc1cc(NC(=O)c2cnccn2)c(OCC)cc1NC(=O)c1ccc(C)cc1 = inactive

----------
PROTOCOL: antiproliferative effect on LL 47 fibroblasts – human, LL 47 cells, CellTiter-Glo luminescence, primary screen (AID 719);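 note: compound exposure lasted 72 h before the ATP readout; 100% = median luminescence of untreated cell-only wells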
CONDITION SET: LL 47 human lung fibroblast viability, ATP luminescence; at 10 µM; stronger effect = lower value
The campaign covered roughly 85,000 compounds. About 940 (1.1%) were called active. Only a selection was taken, and actives are over-represented in it overall.
MEASURED PARAMETER: viability (%)

* Cc1ccc(-n2c(SCC(=O)Nc3ccc4c(c3)OCO4)nnc2-c2ccccn2)cc1 | 42.1
* O=C(Cn1cnc2c(nnn2Cc2ccc(F)cc2)c1=O)NCc1ccc2c(c1)OCO2 | 93.2
* CCOc1cc(N2CCOCC2)c(OCC)cc1NC(=O)COC(=O)[C@H](Cc1c[nH]c2ccccc12)NC(C)=O | 105
* O=C(Nc1cccc(F)c1)c1ccc(S(=O)(=O)N2CCCC2)cc1 | 109
* Cc1cc(C)c2c(n1)nn1c(-n3ccnc3)cc(C)nc21 | 101
* Cc1nn(Cc2ccccc2)c2c1C(c1ccccc1)C(C#N)=C(N)O2 (stereo not drawn) | 98.6
* Cc1ccc(C(=O)NCC2CCCO2)o1 (stereo not drawn) | 101
* COc1ccccc1-n1nnnc1S(=O)(=O)Cc1ccc(Cl)cc1 | 25
* CCN1CCc2c(C#N)c(NCc3ccccc3)nc(NCCO)c2C1 | 86.2
* Cc1cc(C)n(-c2nnc(C)n2NC(=O)c2cccc(Cl)c2)n1 | 94.7
* CC(C)CNC(=O)CC(c1ccccc1)c1c(O)ccc2ccccc12 (stereo not drawn) | 94.7
* CCOc1ccc(N=C2NC(=O)S/C2=C\c2ccc(O)cc2)cc1 | 102
* CCCCCCc1cc2cc(-c3nnc(-c4cccc(OC)c4)o3)c(=O)oc2cc1O | 64.8
* O=C(CSc1nnc(-c2ccccn2)n1-c1ccccc1)Nc1ccc2c(c1)OCO2 | 89.6
* C/C=C/C(=O)Nc1nnc(C(C)C)s1 | 103
* CCCNC(=O)CN(Cc1ccccc1F)S(=O)(=O)c1ccc(C)cc1 | 105
* CCCc1nc(NCc2ccc3c(c2)OCO3)c2nnn(Cc3ccccc3Cl)c2n1 | 23.2
* CS(=O)(=O)n1nc(-c2ccccc2)nc1NCc1ccco1 | 105
* N=c1c2c3c(sc2nc2n1CCCCC2)CCCC3 | 102
* CC(C)Cc1nc(N2CCOCC2)c(C#N)c2c1CCC2 | 90.7
* Cc1cc(Br)ccc1NC(=O)C1CCCO1 (stereo not drawn) | 91.1
* O=C(Cn1c(=O)sc2ccccc21)Nc1nc2c(s1)CCCC2 | 100
* CCOC(=O)c1sc(C)c2c1NC(C)(c1cccc3ccccc13)NC2=O (stereo not drawn) | 78.7

----------
PROTOCOL: antiproliferative effect on LL 47 fibroblasts – human, LL 47 cells, CellTiter-Glo luminescence, primary screen (AID 719);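 note: compound exposure lasted 72 h before the ATP readout; 100% = median luminescence of untreated cell-only wells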
CONDITION SET: LL 47 human lung fibroblast viability, ATP luminescence; at 10 µM; stronger effect = lower value
Among all 85,000 compounds or so, about 940 (1.1%) were called active. The sample as a whole holds a higher share of actives than the screen did.
Measured viability of individual entries
MEASURED PARAMETER: viability (%)

- CCOc1ccc2c(c1)C(c1ccc(C)cc1)=NNC(c1ccc(C)cc1)=N2: 75.9
- Cc1ccc(OCC(=O)N/N=C\c2ccco2)c(C)c1: 108
- Cc1ccc(C)c(N2C(=O)CS/C2=N\NC(=O)c2ccccc2Cl)c1: 101
- O=C(c1ccccc1Oc1ccccc1)N1CCN(c2ccc(F)cc2)CC1: 99.7
- Cc1ccccc1CSCCNC(=O)c1ccc(Cl)c(S(=O)(=O)N2CCOCC2)c1: 97.8
- COc1ccc(Nc2ncc(C(=O)N3CCN(c4ccccc4OC)CC3)c3ccccc23)cc1: 100

----------
PROTOCOL: antiproliferative effect on LL 47 fibroblasts – human, LL 47 cells, CellTiter-Glo luminescence, primary screen (AID 719);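 note: compound exposure lasted 72 h before the ATP readout; 100% = median luminescence of untreated cell-only wells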
CONDITION SET: LL 47 human lung fibroblast viability, ATP luminescence; at 10 µM; stronger effect = lower value
Screen size: about 85,000 compounds; about 940 (1.1%) were called active. The list comes from a sample in which actives are over-represented; it also holds close analogues and randomly drawn compounds.
MEASURED PARAMETER: viability (%)

* COc1ccccc1-c1nc(C#N)c(N2CCC(C(N)=O)CC2)o1 | 89.3
* O=C(Cn1c(-c2cscn2)nc2ccccc21)Nc1ccc(Cl)cc1 | 90.7
* OCCCN1c2ccccc2Nc2nnc(-c3ccccc3)cc21 | 89.3
* CCCn1nnc2sc3c(c2c1=O)CCC(C)C3 (centres undefined) | 88.2
